# pIC50 values compiled below
Tested on: LPS-induced TNF-α release in peripheral blood mononuclear cells (PBMCs)
Measurement Description: In vitro determination of PDE4 inhibitory activity in the PBMCs assay (LPS-induced TNF-α release)
Assay type: cell-based, human
Condition Context: PBMC; human PBMCs, LPS 3 ng/ml, 18 hours, TNF-α by ELISA; read-out: PDE4 inhibition (IC50, 50% inhibition of LPS-induced TNF-α release)
pIC50: −log10 of the molar value.

O=C(O[C@@H](Cc1c(Cl)c[n+]([O-])cc1Cl)c1ccc(OC(F)F)c(OCC2CC2)c1)C1SCCN1S(=O)(=O)c1ccc(F)cc1F (stereo partly drawn) | 9.00 to 10.00
Nc1cccc(S(=O)(=O)N2CCS[C@H]2C(=O)O[C@@H](Cc2c(Cl)c[n+]([O-])cc2Cl)c2ccc(OC(F)F)c(OCC3CC3)c2)c1 | > 10.00
O=C(O[C@@H](Cc1c(Cl)c[n+]([O-])cc1Cl)c1ccc(OC(F)F)c(OCC2CC2)c1)C1SCCN1S(=O)(=O)c1ccccc1 (stereo partly drawn) | 9.00 to 10.00

Retrieve pIC50 measured for O=C(O[C@@H](Cc1c(Cl)c[n+]([O-])cc1Cl)c1ccc(OC(F)F)c(OCC2CC2)c1)[C@@H]1SCCN1C(=O)c1ccccc1 and print it.
9.00 to 10.00

Retrieve pIC50 measured for O=C(O[C@@H](Cc1c(Cl)c[n+]([O-])cc1Cl)c1ccc(OC(F)F)c(OCC2CC2)c1)C1SCCN1C(=O)c1cncs1 (stereo partly drawn) and print it.
> 10.00

Retrieve pIC50 measured for O=C(O[C@@H](Cc1c(Cl)c[n+]([O-])cc1Cl)c1ccc(OC(F)F)c(OCC2CC2)c1)[C@@H]1SCCN1C(=O)c1ccc(CN2CCS(=O)(=O)CC2)cc1 and print it.
9.00 to 10.00

* * *

# pIC50 values compiled below
Test system: LPS-induced TNF-α release in peripheral blood mononuclear cells (PBMCs)
Measurement Description: In vitro determination of PDE4 inhibitory activity in the PBMCs assay (LPS-induced TNF-α release)
Type: cell-based, human
Condition Context: PBMC; human PBMCs, LPS 3 ng/ml, 18 hours, TNF-α by ELISA; read-out: PDE4 inhibition (IC50, 50% inhibition of LPS-induced TNF-α release)
pIC50: −log10 of the molar value.

Answered cases to consult:
CN1CCOc2ccc(S(=O)(=O)N3CCS[C@H]3C(=O)O[C@@H](Cc3c(Cl)c[n+]([O-])cc3Cl)c3ccc(OC(F)F)c(OCC4CC4)c3)cc21 | 9.00 to 10.00
CN(C)S(=O)(=O)c1cccc(S(=O)(=O)N2CCCC2C(=O)O[C@@H](Cc2c(Cl)c[n+]([O-])cc2Cl)c2ccc(OC(F)F)c(OCC3CC3)c2)c1 (stereo in doubt) | 9.00 to 10.00
CN(C)C(=O)c1cccc(S(=O)(=O)N2CCOC(C(=O)O[C@@H](Cc3c(Cl)c[n+]([O-])cc3Cl)c3ccc(OC(F)F)c(OCC4CC4)c3)C2)c1 (stereo partly shown) | 9.00 to 10.00
NCc1cccc(C(=O)N2CCS[C@H]2C(=O)O[C@@H](Cc2c(Cl)c[n+]([O-])cc2Cl)c2ccc(OC(F)F)c(OCC3CC3)c2)c1 | 8.00 to 9.00
COc1ccc(S(=O)(=O)N2CCCC[C@H]2C(=O)O[C@@H](Cc2c(Cl)c[n+]([O-])cc2Cl)c2ccc(OC(F)F)c(OCC3CC3)c2)cc1OC | 9.00 to 10.00

Retrieve pIC50 measured for NS(=O)(=O)c1cccc(S(=O)(=O)N2CCS[C@H]2C(=O)O[C@@H](Cc2c(Cl)c[n+]([O-])cc2Cl)c2ccc(OC(F)F)c(OCC3CC3)c2)c1 and print it.
> 10.00

Retrieve pIC50 measured for COc1ccc(S(=O)(=O)N2CCSC2C(=O)O[C@@H](Cc2c(Cl)c[n+]([O-])cc2Cl)c2ccc(OC(F)F)c(OCC3CC3)c2)cc1N (stereo partly shown) and print it.
9.00 to 10.00

Retrieve pIC50 measured for O=C(O[C@@H](Cc1c(Cl)c[n+]([O-])cc1Cl)c1ccc(OC(F)F)c(OCC2CC2)c1)[C@@H]1SCCN1S(=O)(=O)c1cccc(OC(F)(F)F)c1 and print it.
9.00 to 10.00

Retrieve pIC50 measured for N#Cc1cc(S(=O)(=O)N2CCS[C@H]2C(=O)O[C@@H](Cc2c(Cl)c[n+]([O-])cc2Cl)c2ccc(OC(F)F)c(OCC3CC3)c2)ccc1F and print it.
9.00 to 10.00
